Test system: MS2 coat protein
test-summary: apparent KD of MS2 coat protein; designed switch direction (-1 OFF switch, 1 ON switch): -1; higher = weaker reporter binding
test-conditions: input ligand: FMN 200 uM
readout-kind: apparent KD of MS2 coat protein

seq-string: UAACUGCUCGUCUUGUUAAACAUGAGGAUCACCCAUGUCAGCCUGUAAGGGUACGGUAGAUAGGCCCGAUUGCAUGA [Eternabot (L1) Solution 11] (Eterna round: R97, puzzle: Sensor, turn-off variant 1)
readout-kind: apparent KD of MS2 coat protein
result: 0.0269 µM

seq-string: GACUCACAUGAGGAUCACCCAUGUUAGGAUAUAACCUCAUCAACAACGAUUUGGGAGGUUAGAAGGGAUGAUGG [Eternabot (L1) Solution 80] (Eterna round: R97, puzzle: Exclusion 1)
readout-kind: apparent KD of MS2 coat protein
result: 0.11 µM

----------
Tested on: K4 kissing-loop RNA reporter
test-summary: apparent KD of K4 kissing-loop reporter; higher = weaker reporter binding
test-conditions: Eterna round: R107; input ligand: arginine 13.2 mM
# apparent KD of K4 kissing-loop reporter values compiled below

seq-string: AAACUUGCAGUGAUGUUGCAAGUAGGUGAUACCAGCAUCGAAAGAUGCCCUUGGCAGCACCAUCUUGCAACAAAGGUGCUGCCAA [(H1)-(H2)-(T1)-(T2)-(H)'-(T)'_Design7]
assayed-target: K4 kissing-loop RNA reporter
apparent KD of K4 kissing-loop reporter / nM: 77.4
//
seq-string: AGUGAUGUUGUGUUAUGUUAGGGAAGUGAUCGAGGACCGGUACGGCCGCCACUCGAGUGAUGAGUGAGUGAUGUUUGUUUAGGGA [yytmullin]
assayed-target: K4 kissing-loop RNA reporter
apparent KD of K4 kissing-loop reporter / nM: 670
//
seq-string: UCGAGUUGACGAAAAGUCAACUCGUGAGAUACCAGUGACGAAAGUCACCCUUGGCAGCUCACUGCCAGUGAUGUUGGUGUAUAGA [#06 K4 Theophylline A Same State]
assayed-target: K4 kissing-loop RNA reporter
apparent KD of K4 kissing-loop reporter / nM: 840
//
seq-string: CGGACGGUAUCGGCCGCCACUCUGAAGACAGUGAUGUUGUCCGUGCAGUAUUUAGGAAAGCCGCGGAGGACCGGGAUGCGUCACU [theeternabot_sameState_KL_Trp_B_48]
assayed-target: K4 kissing-loop RNA reporter
apparent KD of K4 kissing-loop reporter / nM: 150
//
seq-string: UCCUGCAAUCUGCCACGAAAGUGGGUUGAUACCAGAGUCGAAAGACUCCCUUGGCAGCGAGUGAUGUUCGUUGCAGGUGAAUAAA [MatMod 9 - Jieux - Exclusion - Theophylline A]
assayed-target: K4 kissing-loop RNA reporter
apparent KD of K4 kissing-loop reporter / nM: 264
//
seq-string: UAGGGUUGAAAAGGAUAUUUACCCUAUGUCAACGAGUGAUGUUCGUGGACAUUAGGCACAACUCGUAAAGAAGGUUUCCAGACUC [theeternabot_sameState_KL_FMN_B_39]
assayed-target: K4 kissing-loop RNA reporter
apparent KD of K4 kissing-loop reporter / nM: 87.5
//
seq-string: UCUGGAGCAUAUGAUACCAGCAGUGAGAGACAGGAAGUAUAGUGAUGUUAUAUGAGAGAAUGCCCUUGGCAGCGUGUGCAGUGGG [SSTheophylB.O]
assayed-target: K4 kissing-loop RNA reporter
apparent KD of K4 kissing-loop reporter / nM: 157
//
seq-string: UUUAGGAGCGGUGUUGAUUAGGGAGCGGAAGGAGCGCCGAUUAUGGCAGGUAGGUCGCCGGAAUGUAGUGAUGUUGCAUAGAGGG [ExArgA.V]
assayed-target: K4 kissing-loop RNA reporter
apparent KD of K4 kissing-loop reporter / nM: 186
//
seq-string: GCCGUAGAUUGAAGGAGCGUUCUUACUGAGUACGGCAACCGGAAGUGAUGUUUCCAGGUGGAACAGGUAGGUCGCAAUCUACGGC
assayed-target: K4 kissing-loop RNA reporter
apparent KD of K4 kissing-loop reporter / nM: 87.4
//
seq-string: AAAUUUUAAAGUGAUACCAGACAUCUCAAUUACAUUAAUAAAGCUAAGUGAUGUUUAGCAGUCCCUUGGCAGCACAAUUUAAUUA [JR_SSTheophyB_Sub011]
assayed-target: K4 kissing-loop RNA reporter
apparent KD of K4 kissing-loop reporter / nM: 334
//
seq-string: UUAGUUGAAAGUGAUACCAGACGAGUGAAGGGAAGAAAUUAAGUUGGAGUGAUGUUCCGCGUCCCUUGGCAGCACUUUGUAAUUU [Exclusion Theophylline B GF 22]
assayed-target: K4 kissing-loop RNA reporter;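 note: bound reporter read as fluorescence of individual clusters on recovered sequencing chips by microscopy, with normalized cluster intensities fitted with a binding model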
apparent KD of K4 kissing-loop reporter / nM: 151

----------
System: MS2 coat protein
test-summary: apparent KD of MS2 coat protein; designed switch direction (-1 OFF switch, 1 ON switch): 1; higher = weaker reporter binding
test-conditions: input ligand: FMN 200 uM

seq-string: UCGAGCGUACUUGCAGACAUGAGGAUCACCCAUGUAAAUGGGAAGGAUAUGGUACCGUUUCGGUACCAGAAGGUCCUAAGUGCU [salish99_SSNG3_r04_304] (Eterna round: R96, puzzle: Same State NG 3)
assayed-target: MS2 coat protein
apparent KD of MS2 coat protein (nM): 166

seq-string: UUGAAGAAUAUAGGAUAUUGAAUACAUAUGUUUAACAUGAGGAUCACCCAUGUGGGUUGCGGUAUCGAGAAGGAUAAAUAAAAG [Mat - Same State NG 2 - JL mod - D14] (Eterna round: R96, puzzle: Same State NG 2)
assayed-target: MS2 coat protein
apparent KD of MS2 coat protein (nM): 203

seq-string: UGGCUCAGACGAGGAUAUGAUCAUGGCGCUUCGGCGCAUACAUGAGGAUCACCCAUGUAGGGUGAUCAGAAGGUGUCUGAGCCA [SSNG2/8-B2] (Eterna round: R96, puzzle: Same State NG 2)
assayed-target: MS2 coat protein
apparent KD of MS2 coat protein (nM): 90.9

seq-string: UGGUCUCACUUAGGAUAUUAGCACCGAAAGAGCUAAGAAGGAGGUGAAACUCUCACAUGAGGAUCACCCAUGUACACCCUAGGG [Eternabot solution 3] (Eterna round: R96, puzzle: Same State NG 1)
assayed-target: MS2 coat protein
apparent KD of MS2 coat protein (nM): 162

----------
Test system: MS2 coat protein
test-summary: apparent KD of MS2 coat protein; designed switch direction (-1 OFF switch, 1 ON switch): 1; higher = weaker reporter binding
test-conditions: input ligand: microRNA oligo, concentration not stated

seq-string: UGUUGUAUUACAGGAUAUCUAUUGUUUUGAUUUAGAGAAGGGUAUUCACAUGAGGAUCACCCAUGUAUAUACGAGGAAGUUGUG [JMF's solution 77] (Eterna round: R96, puzzle: Same State NG 1)
u: µM
apparent KD of MS2 coat protein: 0.0403
//
seq-string: GACCGCGAGGAAGGAUAUGGAGCCUUAAAGGCUCCAGAAGGUCCAUAAAGGACAUGAGGAUCACCCAUGUGGUGAGAAGCGGUC [Mat - Same State NG 1 - JL mod - D75] (Eterna round: R96, puzzle: Same State NG 1)
u: µM
apparent KD of MS2 coat protein: 0.711

----------
Tested on: MS2 coat protein
test-summary: apparent KD of MS2 coat protein, switch OFF state (with FMN for OFF switches, without FMN for ON switches); designed switch direction (-1 OFF switch, 1 ON switch): -1; higher = weaker reporter binding
test-conditions: FMN input: 0 or 200 uM; Eterna round: R93 (includes R88 designs)
readout-kind: apparent KD of MS2 coat protein (nM)

seq-string: GACCAGUGAGGAUAUGUAAAAAAAAGAGAAGAGAAGAGAGAACAGAAGGCACAUGAGGAUCACCCAUGUAGGGA [Default title]
readout-kind: apparent KD of MS2 coat protein
u: nM
quantitative-readout: 170

seq-string: AAAAAACAUGAGGAUCACCCAUGUGAGGAUAUGCGAAAAUAAAAUAAAAUAAUAAAAAGCAGAAGGCACACCAA [58%, Sh'dynasty, 2]
readout-kind: apparent KD of MS2 coat protein
u: nM
quantitative-readout: 29

seq-string: GAAAAGUCAGGAUAUGCAGAUAAAAAAACGAAAAAAAAUCUGCAGAAGGGACAUGAGGAUCACCCAUGUAAAAG [Mat - Exclusion 4 - Mayanna - D110]
readout-kind: apparent KD of MS2 coat protein
u: nM
quantitative-readout: 54.2

seq-string: AAAAAGUGAGGAUAUGGUAAAAAAAAAAAAAAAAAGCACCUCCAGAAGGCACAUGAGGAUCACCCAUGUCGAAA [Jolly's Folly 6 - Jieux - Exclusion 4]
readout-kind: apparent KD of MS2 coat protein
u: nM
quantitative-readout: 31.3

seq-string: AAAACACAUGAGGAUCACCCAUGUGAGGAUAUGCUAUGGAAAUAAAAAAUAAAACAUAGCAGAAGGCACAAGGA [Mat - Exclusion 1 - Eli mod - D45]
readout-kind: apparent KD of MS2 coat protein
u: nM
quantitative-readout: 49.1

seq-string: AAGAAGUGAGGAUAUCGAAGACAGACGAAAAGUCUGUCAAACGAGAAGGCACAUGAGGAUCACCCAUGUGGGAG [Mat - Exaclusion 4 - Eli mod - D74]
readout-kind: apparent KD of MS2 coat protein
u: nM
quantitative-readout: 277
